SYSTEM UNDER TEST: Active Human ERK2 (hERK2) (Homo sapiens (Human), UniProt P28482)
Sequence (P28482 whole entry): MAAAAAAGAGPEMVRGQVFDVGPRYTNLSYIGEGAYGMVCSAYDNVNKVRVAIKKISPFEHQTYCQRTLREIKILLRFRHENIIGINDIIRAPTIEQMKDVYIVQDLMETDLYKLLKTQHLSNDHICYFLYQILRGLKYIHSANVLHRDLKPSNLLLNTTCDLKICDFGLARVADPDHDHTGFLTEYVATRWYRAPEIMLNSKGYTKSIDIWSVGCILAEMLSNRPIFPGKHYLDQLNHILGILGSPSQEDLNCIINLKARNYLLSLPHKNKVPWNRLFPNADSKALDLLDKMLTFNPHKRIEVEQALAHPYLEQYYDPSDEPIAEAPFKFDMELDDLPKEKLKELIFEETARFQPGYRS
EXPERIMENT NOTES: Active Human ERK2 (hERK2) Activity Assay (IMAP-FP)
Type: biochemical
DETAILS: phosphorylated active hERK2, 30 μM ATP; average; read-out: ERK 2 Human average IC50
Mark yes only for IC50 values smaller than 9 nM; exact matches and larger values are no.

[Q] I wonder whether Cc1cc(-c2n[nH]c3cc(NC(=O)N[C@H](C)c4ccccc4)ncc23)ccn1 has IC50 below 9 nM. Can you tell?
[A] yes

[Q] I wonder whether COc1cc(F)ccc1CNC(=O)Nc1cc2[nH]nc(-c3ccnc(C)c3)c2cn1 has IC50 below 9 nM. Can you tell?
[A] yes

[Q] I wonder whether CCNC(=O)Nc1cc2[nH]nc(C3CC3)c2cn1 has IC50 below 9 nM. Can you tell?
[A] no

[Q] I wonder whether Cc1cc(-c2n[nH]c3cc(NC(=O)N[C@H]4CCCC(F)(F)[C@@H]4O)ncc23)ccn1 has IC50 below 9 nM. Can you tell?
[A] no

[Q] I wonder whether Cc1cc(-c2n[nH]c3cc(NC(=O)NC(C)c4ccc(F)cn4)ncc23)ccn1 (centres unmarked) has IC50 below 9 nM. Can you tell?
[A] yes

[Q] I wonder whether COC[C@H](NC(=O)Nc1cc2[nH]nc(-c3ccnc(F)c3)c2cn1)c1ccccc1 has IC50 below 9 nM. Can you tell?
[A] no

[Q] I wonder whether C[C@@H](NC(=O)Nc1cc2[nH]nc(Br)c2cn1)c1ccc(F)c(Cl)c1 has IC50 below 9 nM. Can you tell?
[A] no

----------
Assign IC50 to each entry below.
SYSTEM UNDER TEST: Active Human ERK2 (hERK2) (Homo sapiens (Human), UniProt P28482)
EXPERIMENT NOTES: Active Human ERK2 (hERK2) Activity Assay (IMAP-FP)
Type: biochemical
DETAILS: phosphorylated active hERK2, 30 μM ATP; average; read-out: ERK 2 Human average IC50
Description: Assays Active Human ERK2 (hERK2) Activity Assay: Activated ERK2 activity was determined in an IMAP-FP assay (Molecular Devices). […] The final reaction in each well of 25 μL consists of 0.5 nM hERK2, 900 nM unlabeled peptide, 80 nM labeled-peptide, and 30 μM ATP. […] Plates were read on EnVision reader after 60 minutes binding equilibration using Fluorescence Polarization protocol (Perkin Elmer).
Use nM as the unit, but write only the number.

[Q] Value lookup for IC50; key = CCCNC(=O)Nc1cc2[nH]nc(-c3ccnc(C)c3)c2cn1 [Example 572]
[A] 1.62

[Q] Value lookup for IC50; key = CC(F)(F)c1n[nH]c2cc(NC(=O)NCc3ccc(F)cc3)ncc12 [Example 668]
[A] 647

[Q] Value lookup for IC50; key = CO[C@H](C)CNC(=O)Nc1cc2[nH]nc(-c3ccc(F)cc3)c2cn1 [Example 634]
[A] 1.3

[Q] Value lookup for IC50; key = COC[C@@H](NC(=O)Nc1cc2[nH]nc(-c3ccn4ncnc4c3)c2cn1)c1ccc(F)cc1 [Example 300]
[A] 1.34

[Q] Value lookup for IC50; key = CCO[C@@H]1CN(C)C[C@H]1NC(=O)Nc1cc2[nH]nc(-c3ccc(F)cc3)c2cn1 [Example 320]
[A] 25.4

[Q] Value lookup for IC50; key = Cc1cc(-c2n[nH]c3cc(NC(=O)NCc4ccns4)ncc23)ccn1 [Example 429]
[A] 1.12

[Q] Value lookup for IC50; key = Cc1cc(-c2n[nH]c3cc(NC(=O)NC(C)c4ccno4)ncc23)ccn1 (centres unmarked) [Example 497]
[A] 1.53

[Q] Value lookup for IC50; key = Cc1cc(-c2n[nH]c3cc(NC(=O)NCC4CCCCO4)ncc23)ccn1 (centres unmarked) [Example 469]
[A] 1.21

[Q] Value lookup for IC50; key = Cc1cc(-c2n[nH]c3cc(NC(=O)N[C@H]4CN(C)C[C@@H]4c4ccccc4C)ncc23)ccn1 [Example 216]
[A] 66.3

[Q] Value lookup for IC50; key = COCCNC(=O)Nc1cc2[nH]nc(-c3ccc(F)cc3)c2cn1 [Example 623]
[A] 1.93

[Q] Value lookup for IC50; key = COC[C@@H](NC(=O)Nc1cc2[nH]nc(-c3ccc4cn(C)nc4c3)c2cn1)c1ccccc1 [Example 614]
[A] 0.481

[Q] Value lookup for IC50; key = Cc1cc(-c2n[nH]c3cc(NC(=O)NCC4(O)CCN(C)CC4)ncc23)ccn1 [Example 388]
[A] 6.66

[Q] Value lookup for IC50; key = Cc1nnc(-c2n[nH]c3cc(NC(=O)N[C@H](C)c4ccccc4)ncc23)o1 [Example 681]
[A] 7.7

[Q] Value lookup for IC50; key = Cc1cc(-c2n[nH]c3cc(NC(=O)NCc4scnc4C)ncc23)ccn1 [Example 418]
[A] 2.75

[Q] Value lookup for IC50; key = Cc1cc(-c2n[nH]c3cc(NC(=O)NCC4CC4)ncc23)ccn1 [Example 35]
[A] 2.1

[Q] Value lookup for IC50; key = C[C@@H](NC(=O)Nc1cc2[nH]nc(C(=O)N[C@@H]3CCN(O)C3=O)c2cn1)c1ccccc1 [Example 134]
[A] 103

[Q] Value lookup for IC50; key = C[C@@H](NC(=O)Nc1cc2[nH]nc(-c3ccc(-n4nccn4)cc3)c2cn1)c1ccc(F)cc1 [Example 247]
[A] 45

----------
Assign pIC50 to each entry below.
SYSTEM UNDER TEST: Active Mouse ERK2 (mERK2) (Mus musculus (Mouse))
Sequence (P63085 whole entry): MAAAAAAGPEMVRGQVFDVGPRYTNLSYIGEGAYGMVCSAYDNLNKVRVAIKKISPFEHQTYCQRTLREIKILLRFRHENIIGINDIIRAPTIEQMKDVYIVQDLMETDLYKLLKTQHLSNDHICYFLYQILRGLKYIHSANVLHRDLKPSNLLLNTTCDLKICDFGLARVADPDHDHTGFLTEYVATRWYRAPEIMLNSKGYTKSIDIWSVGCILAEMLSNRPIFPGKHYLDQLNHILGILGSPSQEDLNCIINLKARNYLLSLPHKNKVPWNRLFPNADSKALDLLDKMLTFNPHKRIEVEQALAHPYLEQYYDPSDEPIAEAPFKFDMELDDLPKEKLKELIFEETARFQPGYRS
EXPERIMENT NOTES: Active Mouse ERK2 (mERK2) Activity Assay (IMAP-FP)
Type: biochemical
DETAILS: phosphorylated active mERK2, 30 uM ATP; read-out: ERK 2 MAPK1 Mouse IC50
Scale: negative log10 of molar concentration, which is what pIC50 denotes.

[Q] Value lookup for pIC50; key = COCCCc1n[nH]c2cc(NC(=O)N[C@H](C)c3ccccc3)ncc12
[A] 8.65

[Q] Value lookup for pIC50; key = Cc1cc(-c2n[nH]c3cc(NC(=O)N[C@H](C)c4ccccc4)ncc23)ccn1
[A] 9.82

[Q] Value lookup for pIC50; key = Cc1cc(-c2n[nH]c3cc(NC(=O)NCc4ccccc4)ncc23)ccn1
[A] 9.65

[Q] Value lookup for pIC50; key = C[C@@H](NC(=O)Nc1cc2[nH]ncc2cn1)c1ccc(F)cc1
[A] 6.17

[Q] Value lookup for pIC50; key = Cc1cc(-c2n[nH]c3cc(NC(=O)N[C@@H](CO)c4ccccc4)ncc23)ccn1
[A] 6.97

[Q] Value lookup for pIC50; key = COc1cccc(F)c1CN1CCC[C@@H](NC(=O)Nc2cc3[nH]nc(-c4ccnc(C)c4)c3cn2)C1
[A] 9.82

[Q] Value lookup for pIC50; key = Cc1cc(-c2n[nH]c3cc(NC(=O)N[C@@H](C)c4ccc(F)cc4)ncc23)ccn1
[A] 9.82

[Q] Value lookup for pIC50; key = CCCc1n[nH]c2cc(NC(=O)N[C@H](C)c3ccccc3)ncc12
[A] 9.04

[Q] Value lookup for pIC50; key = Cc1cc(-c2n[nH]c3cc(NC(=O)N[C@@H](C)c4ccccc4)ncc23)ccn1
[A] 7.42

[Q] Value lookup for pIC50; key = COc1cccc(F)c1CN1CCC[C@H](NC(=O)Nc2cc3[nH]nc(-c4ccnc(C)c4)c3cn2)C1
[A] 7.44

----------
SYSTEM UNDER TEST: Active Human ERK2 (hERK2) (Homo sapiens (Human))
EXPERIMENT NOTES: Active Human ERK2 (hERK2) Activity Assay (IMAP-FP)
Assay type: biochemical
DETAILS: phosphorylated active hERK2, 30 μM ATP; average; read-out: ERK 2 Human average IC50
Method: Assays Active Human ERK2 (hERK2) Activity Assay: Activated ERK2 activity was determined in an IMAP-FP assay (Molecular Devices). […] The final reaction in each well of 25 μL consists of 0.5 nM hERK2, 900 nM unlabeled peptide, 80 nM labeled-peptide, and 30 μM ATP. […] Plates were read on EnVision reader after 60 minutes binding equilibration using Fluorescence Polarization protocol (Perkin Elmer).
Assign IC50 to each entry below.
Use µM as the unit, but write only the number.

[Q] Value lookup for IC50; key = Cc1cc(-c2n[nH]c3c(Br)c(NC(=O)N[C@H](C)c4ccc(Cl)cc4)ncc23)ccn1
[A] 0.455

[Q] Value lookup for IC50; key = CC(O)c1n[nH]c2cc(NC(=O)N[C@H](C)c3ccccc3)ncc12 (stereo partly shown)
[A] 0.0227

[Q] Value lookup for IC50; key = Cc1cc(-c2n[nH]c3cc(NC(=O)NCc4ccc(Cl)cc4C)ncc23)ccn1
[A] 0.00245

[Q] Value lookup for IC50; key = Cc1cc(-c2n[nH]c3cc(NC(=O)NC4CCc5nc(N)sc5C4)ncc23)ccn1 (stereo not shown)
[A] 0.00136
